ASSAY SYSTEM: T1, human factor Xa (Enzyme Research Laboratories, Inc.) (human), P00742
T1 chain 1: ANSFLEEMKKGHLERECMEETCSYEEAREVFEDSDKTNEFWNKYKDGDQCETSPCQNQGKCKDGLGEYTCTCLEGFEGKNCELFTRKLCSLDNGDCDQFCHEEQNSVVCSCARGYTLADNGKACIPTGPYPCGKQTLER
T1 chain 2: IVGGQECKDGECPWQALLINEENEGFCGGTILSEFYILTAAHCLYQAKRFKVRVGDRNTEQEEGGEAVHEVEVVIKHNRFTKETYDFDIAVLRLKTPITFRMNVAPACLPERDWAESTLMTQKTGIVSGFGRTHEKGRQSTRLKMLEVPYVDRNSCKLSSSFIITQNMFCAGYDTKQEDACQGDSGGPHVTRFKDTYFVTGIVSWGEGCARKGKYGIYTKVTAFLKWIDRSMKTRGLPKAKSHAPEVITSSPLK
METHOD: chromogenic FXa inhibition
No end group written: not given here.
Listed here are binders together with their documented Ki.
PROPERTY NAME: Ki

{"BINDER": "Ac-GYIRL-NH2 [Ac-G-Y-I-R-L-NH2]", "RESULT": "< 100 µM"}
{"BINDER": "Ac-GYIRG-NH2 [Ac-G-Y-I-R-G-NH2]", "RESULT": "< 100 µM"}
{"BINDER": "GYIRK-NH2 [G-Y-I-R-K-NH2]", "RESULT": "< 100 µM"}
